# TESTED_ON: LPL:sGPIHBP1 complex (Homo sapiens)
# TEST_DESCRIPTION: RB assay (LPL:sGPIHBP1 pre-incubated with ANGPTL4, RB substrate)
# CONDITION_CONTEXT: read-out: RB qAC50
ATTRIBUTE_MEASURED: EC50 (µM)

INSERT INTO results (smiles_input, unit_descriptor, qualifier_sign, measured) VALUES
  ('O=C(O)Cc1cc(F)ccc1NC(=O)c1ccc(N2CCS(=O)(=O)CC2)c(NC(=O)c2nn(CC(F)(F)F)c3ccccc23)c1', 'µM', '>', 25),
  ('Cc1c(C(=O)Nc2ccc(F)cc2CC(=O)O)ccc(N2CCCCC2)c1NC(=O)c1nn(CC(F)(F)F)c2ccccc12', 'µM', '>', 25),
  ('O=C(O)Cc1cc(F)ccc1NC(=O)c1ccc(N2CCCCC2)c(NC(=O)c2nn(CC(F)F)c3ccccc23)c1', 'µM', '=', 4.7),
  ('N#CC1(Cn2nc(C(=O)Nc3cc(C(=O)Nc4ccc(F)cc4CC(=O)O)ccc3N3CCCCC3)c3ccccc32)CC1', 'µM', '=', 4.3),
  ('Cc1ccc2c(C(=O)Nc3cc(C(=O)Nc4ccc(F)cc4CC(=O)O)ccc3N3CCCCC3)nn(CC(F)(F)F)c2c1', 'µM', '=', 5),
  ('C#CCn1nc(C(=O)Nc2cc(C(=O)Nc3ccc(F)cc3CC(=O)O)ccc2N2CCCCC2)c2ccccc21', 'µM', '=', 3.8);

====

# TESTED_ON: LPL:sGPIHBP1 complex (Homo sapiens, UniProt P06858)
# Sequence (P06858 28-475, species assumed): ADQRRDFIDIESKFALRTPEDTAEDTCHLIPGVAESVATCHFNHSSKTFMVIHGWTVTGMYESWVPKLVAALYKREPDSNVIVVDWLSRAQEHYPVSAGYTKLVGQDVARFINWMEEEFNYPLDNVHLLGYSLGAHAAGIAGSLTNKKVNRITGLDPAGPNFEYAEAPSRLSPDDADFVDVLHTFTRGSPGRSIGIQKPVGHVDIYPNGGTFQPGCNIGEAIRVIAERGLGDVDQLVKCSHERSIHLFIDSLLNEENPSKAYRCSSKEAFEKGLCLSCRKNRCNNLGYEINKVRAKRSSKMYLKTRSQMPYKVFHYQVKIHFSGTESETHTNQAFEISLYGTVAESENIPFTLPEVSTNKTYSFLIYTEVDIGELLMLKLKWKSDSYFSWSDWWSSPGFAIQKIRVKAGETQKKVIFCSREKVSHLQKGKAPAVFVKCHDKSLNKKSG
# Sequence (Q8IV16 21-151 partner limits assumed, species assumed): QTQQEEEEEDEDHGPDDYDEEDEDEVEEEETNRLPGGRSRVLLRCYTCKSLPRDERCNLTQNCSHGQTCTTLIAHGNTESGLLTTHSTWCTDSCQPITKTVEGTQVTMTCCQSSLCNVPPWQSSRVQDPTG
# TEST_DESCRIPTION: RB assay (LPL:sGPIHBP1 pre-incubated with ANGPTL4, RB substrate)
# CONDITION_CONTEXT: read-out: RB qAC50
pEC50: −log10 of the molar value.
Recorded pEC50 by entry
ATTRIBUTE_MEASURED: pEC50

INSERT INTO measurements (compound, measured) VALUES
  ('O=C(O)Cc1cc(F)ccc1NC(=O)c1ccc(N2CCCCC2)c(NC(=O)c2nn(CC(F)(F)F)cc2-c2ccccc2)c1', '< 5.15'),
  ('NCCn1nc(C(=O)Nc2cc(C(=O)Nc3ccc(F)cc3CC(=O)O)ccc2N2CCCCC2)c2ccccc21', '< 4.60'),
  ('O=C(O)Cc1cc(F)ccc1NC(=O)c1ccc(N2CCCCC2)c(NC(=O)c2nn(CCN3CCCC3)c3ccccc23)c1', '< 4.60'),
  ('CC(n1nc(C(=O)Nc2cc(C(=O)Nc3ccc(F)cc3CC(=O)O)ccc2N2CCCCC2)c2ccccc21)C(F)(F)F (centres unmarked)', '< 5.15'),
  ('CC1CCCC(C)N1c1ccc(C(=O)Nc2ccc(F)cc2CC(=O)O)cc1NC(=O)c1nn(CC(F)(F)F)c2ccccc12 (centres unmarked)', '< 5.15'),
  ('O=C(O)Cc1cc(F)ccc1NC(=O)c1ccc(N2CCCCC2)c(NC(=O)c2nn(CC(F)(F)F)c3ncccc23)c1', 5.05),
  ('O=C(O)Cc1cc(F)ccc1NC(=O)c1ccc(N2CCC3(CC3)C2)c(NC(=O)c2nn(CC(F)(F)F)c3ccccc23)c1', 5.17),
  ('O=C(O)Cc1cc(F)ccc1NC(=O)c1cc(NC(=O)c2nn(CC(F)(F)F)c3ccccc23)c(N2CCCCC2)cn1', '< 5.15'),
  ('O=C(O)Cc1cc(F)ccc1NC(=O)c1ccc(N2CCCCC2)c(NC(=O)c2nn(CC(F)(F)F)cc2C2CC2)c1', '< 4.60'),
  ('O=C(O)Cc1cc(F)ccc1NC(=O)c1ccc(N2CCCCC2)c(NC(=O)c2nn(C[C@H]3CCCO3)c3ccccc23)c1', 5.42),
  ('N#CC1CCN(c2ccc(C(=O)Nc3ccc(F)cc3CC(=O)O)cc2NC(=O)c2nn(CC(F)(F)F)c3ccccc23)CC1', '< 4.60'),
  ('CC1CC(C)CN(c2ccc(C(=O)Nc3ccc(F)cc3CC(=O)O)cc2NC(=O)c2nn(CC(F)(F)F)c3ccccc23)C1 (centres unmarked)', '< 5.15'),
  ('O=C(O)Cc1cc(F)ccc1NC(=O)c1cnc(N2CCCCC2)c(NC(=O)c2nn(CC(F)(F)F)c3ccccc23)c1', '< 4.60'),
  ('CC(C)(O)Cn1nc(C(=O)Nc2cc(C(=O)Nc3ccc(F)cc3CC(=O)O)ccc2N2CCCCC2)c2ccccc21', 5.11),
  ('O=C(O)Cc1cc(F)ccc1NC(=O)c1ccc(N2CCCCC2)c(NC(=O)c2nn(CC3CCOC3)c3ccccc23)c1 (centres unmarked)', '< 5.15'),
  ('O=C(O)Cc1cc(Cl)ccc1NC(=O)c1ccc(N2CCCCC2)c(NC(=O)c2nn(CC(F)(F)F)c3ccccc23)c1', 5.34),
  ('O=C(O)Cc1cccc(F)c1NC(=O)c1ccc(N2CCCCC2)c(NC(=O)c2nn(CC(F)(F)F)c3ccccc23)c1', 5.49);
